# Tested on: Xanthomonas oryzae
# Assay remarks: Antimicrobial activity against Xanthomonas oryzae after 24 hrs by agar well diffusion method
# Type: functional
Where a SMILES comes first, the peptide text is derived from it. The star is where a group is joined. X1 = Fc1ccc2c(C3CCN(*)CC3)noc2c1

Compound | Assay system | Reading unit | inhibition zone (IZ)
CC1(C)S[C@@H]2[C@H](NC(=O)[C@H](N)c3ccc(O)cc3)C(=O)N2[C@H]1C(=O)O | Xanthomonas oryzae | mm | 8
N[C@@H](Cc1ccc(O)cc1)C(=O)N1CCC(c2noc3cc(F)ccc23)CC1.O=C(O)C(F)(F)F | Xanthomonas oryzae | mm | 5
Fc1ccc2c(C3CCNCC3)noc2c1 | Xanthomonas oryzae | mm | 4
NCC(=O)NCC(=O)N[C@@H](Cc1ccccc1)C(=O)N1CCC[C@H]1C(=O)N1CCC(c2noc3cc(F)ccc23)CC1.O=C(O)C(F)(F)F (H-GGFP-X1) | Xanthomonas oryzae | mm | 16
